Collected Kd values appear next to each entry.
molecular target: T1, recombinant gp120 of HIV-1 strain IIIb (HIV-1 strain IIIb, UniProt P04578 33-511); test: SPR BIAcore, gp120 on chip
T1 construct: domain: gp120; also called IIIb-derived gp120; gp 120 (IIIB strain)
observable: Kd

1. Fab M556-16 (Fab, V domains shown) VH: LEQSGAEVKKPGASVKVSCQASGYRFSNFTVHWVRQAPGQRFEWMGWINPYNGNKEFSAKFQDRVTFTADTSANTAYMELRSLRSADTAVYYCARVGEWGWDQVRYDNYYMDVWGKGTTVIVSS VL: ELTQSPGTLSLSPGERATFSCRSSHSIRSRRVAWYQHKPGQAPRLVIHGVSNRASGISDRFSGSGSGTDFTLTITRVEPEDFALYYCQVYGASSYTFGQGTKLERKR; 0.139 nM
2. Fab M556-2 (Fab, V domains shown) VH: LEQSGAEVKKPGASVKVSCQASGYRFSNFTVHWVRQAPGQRFEWMGWINPYNGNKEFSAKFQDRVTFTADTSANTAYMELRSLRSADTAVYYCARVGEWGWEQFRFDNYYMDVWGKGTTVIVSS VL: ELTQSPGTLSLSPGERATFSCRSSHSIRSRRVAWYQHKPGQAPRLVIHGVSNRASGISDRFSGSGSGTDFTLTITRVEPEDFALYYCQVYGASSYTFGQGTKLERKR; 0.439 nM
3. Fab M556-15 (Fab, V domains shown) VH: LEQSGAEVKKPGASVKVSCQASGYRFSNFTVHWVRQAPGQRFEWMGWINPYNGNKEFSAKFQDRVTFTADTSANTAYMELRSLRSADTAVYYCARVGEWGWTQRRFDNYYMDVWGKGTTVIVSS VL: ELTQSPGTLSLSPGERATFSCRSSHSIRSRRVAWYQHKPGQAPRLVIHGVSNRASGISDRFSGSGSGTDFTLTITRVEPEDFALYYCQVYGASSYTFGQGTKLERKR; 0.174 nM
